Reported IC50 by item:
target: ZAP-70 (Homo sapiens, UniProt P43403); assay: DELFIA assay (ZAP-70 kinase, phosphorylation of biotinylated poly(glu,tyr)); type: biochemical; conditions: ZAP-70 DELFIA, class symbols; read-out: Activity (IC50 in vitro)
Sequence (P43403 whole entry): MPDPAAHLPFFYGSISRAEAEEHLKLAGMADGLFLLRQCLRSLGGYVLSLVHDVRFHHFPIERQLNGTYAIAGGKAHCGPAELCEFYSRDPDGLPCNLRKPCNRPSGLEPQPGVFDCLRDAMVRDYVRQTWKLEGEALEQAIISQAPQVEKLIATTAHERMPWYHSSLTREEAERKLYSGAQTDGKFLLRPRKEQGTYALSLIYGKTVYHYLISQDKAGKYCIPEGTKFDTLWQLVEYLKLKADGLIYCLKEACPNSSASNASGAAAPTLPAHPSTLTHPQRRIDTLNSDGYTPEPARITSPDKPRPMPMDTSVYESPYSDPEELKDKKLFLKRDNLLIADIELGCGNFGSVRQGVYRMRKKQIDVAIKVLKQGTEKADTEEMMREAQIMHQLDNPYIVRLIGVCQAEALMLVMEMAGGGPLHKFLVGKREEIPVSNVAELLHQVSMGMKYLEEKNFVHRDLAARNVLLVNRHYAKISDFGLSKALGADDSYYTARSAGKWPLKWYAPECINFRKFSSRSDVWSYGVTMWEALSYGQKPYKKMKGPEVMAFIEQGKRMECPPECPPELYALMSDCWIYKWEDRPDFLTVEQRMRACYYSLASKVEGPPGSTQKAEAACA

Worked cases, IC50 given:
O=C(c1cc(NCc2ccc(C(F)(F)F)cc2)nc2ccc(-c3ccc(-c4cnco4)s3)cc12)N1CCC[C@H]1CN1CCCC1 :: > 10 µM
CN(C)CCN(C)c1cc(C(=O)N2CCC[C@H]2CN2CCCC2)c2cc(-c3ccc4c(c3)OCO4)ccc2n1 :: > 10 µM

**Q:** Bench note: what IC50 did O=C(c1cc(NCc2ccc(C(F)(F)F)cc2)nc2ccc(-c3ccc(F)c(Cl)c3)cc12)N1CCC[C@H]1CN1CCCC1 show?
**A:** < 1 µM

**Q:** Bench note: what IC50 did N#Cc1ccc(-c2ccc3nc(N4CCCC(c5ccccc5)C4)cc(C(=O)N4CCC[C@H]4CN4CCCC4)c3c2)cc1 (stereo partly drawn) show?
**A:** > 10 µM

**Q:** Bench note: what IC50 did COc1ccc([C@@H](C)Nc2cc(C(=O)N3CCC[C@H]3CN3CCCC3)c3cc(-c4ccc(C#N)cc4)ccc3n2)cc1 show?
**A:** > 10 µM

**Q:** Bench note: what IC50 did CN1CCN(c2cc(C(=O)N3CCC[C@H]3CN3CCCC3)c3cc(-c4ccc5c(c4)OCO5)ccc3n2)CC1 show?
**A:** 1 to 10 µM

**Q:** Bench note: what IC50 did O=C(Nc1cc(C(=O)N2CCC[C@H]2CN2CCCC2)c2cc(-c3ccc4c(c3)OCO4)ccc2n1)c1ccccc1 show?
**A:** 1 to 10 µM

**Q:** Bench note: what IC50 did N#Cc1ccc(-c2ccc3nc(NCc4cc(Cl)cc(Cl)c4)cc(C(=O)N4CCC[C@H]4CN4CCCC4)c3c2)cc1 show?
**A:** > 10 µM

**Q:** Bench note: what IC50 did O=C(c1cc(NCc2ccc(C(F)(F)F)cc2)nc2ccc(-c3ccc(F)cc3)cc12)N1CCC[C@H]1CN1CCCC1 show?
**A:** < 1 µM

**Q:** Bench note: what IC50 did Cc1ccc(CNc2cc(C(=O)N3CCC[C@H]3CN3CCCC3)c3cc(-c4ccc(C#N)cc4)ccc3n2)cc1F show?
**A:** > 10 µM

**Q:** Bench note: what IC50 did Cc1noc(C)c1-c1ccc2nc(NCc3ccc(C(F)(F)F)cc3)cc(C(=O)N3CCC[C@H]3CN3CCCC3)c2c1 show?
**A:** > 10 µM

**Q:** Bench note: what IC50 did O=C(c1cc(CCc2ccc(C(F)(F)F)cc2)nc2ccc(-c3ccc4c(c3)OCO4)cc12)N1CCC[C@H]1CN1CCCC1 show?
**A:** 1 to 10 µM

**Q:** Bench note: what IC50 did O=C(c1cc(Nc2ccccn2)nc2ccc(-c3ccc4c(c3)OCO4)cc12)N1CCC[C@H]1CN1CCCC1 show?
**A:** < 1 µM

**Q:** Bench note: what IC50 did CN(Cc1ccccc1)c1cc(C(=O)N2CCC[C@H]2CN2CCCC2)cc(/C=C/c2ccccc2)n1 show?
**A:** > 10 µM

###

target: UniProt P43403; experiment: DELFIA assay (ZAP-70 kinase, phosphorylation of biotinylated poly(glu,tyr)); type: biochemical; conditions: ZAP-70 DELFIA, class symbols; read-out: Activity (IC50 in vitro)
pIC50: −log10 of the molar value.
valueType: pIC50

Worked cases, pIC50 given:
O=C(c1cc(NCc2ccc(Cl)cc2)nc2ccc(-c3ccc4c(c3)OCO4)cc12)N1CCC[C@H]1CN1CCCC1 :: > 6.00
C[C@H](Nc1cc(C(=O)N2CCC[C@H]2CN2CCCC2)c2cc(-c3ccc4c(c3)OCO4)ccc2n1)c1ccc(Cl)cc1 :: > 6.00
FC(F)(F)c1ccc(CNc2cc(C(=S)N3CCC[C@H]3CN3CCCC3)c3cc(-c4ccc5c(c4)OCO5)ccc3n2)cc1 :: 5.00 to 6.00
O=C(Nc1ccc2[nH]ncc2c1)c1cc(NCc2ccc(C(F)(F)F)cc2)nc2ccc(-c3ccc4c(c3)OCO4)cc12 :: < 5.00
O=C(NCc1ccc(C(F)(F)F)cc1)c1cc(NCc2ccc(C(F)(F)F)cc2)nc2ccc(-c3ccc4c(c3)OCO4)cc12 :: < 5.00

**Q:** Bench note: what pIC50 did O=C(c1cc(NCc2ccccc2)nc2ccc(-c3ccc4c(c3)OCO4)cc12)N1CCC[C@H]1CO show?
**A:** < 5.00

**Q:** Bench note: what pIC50 did O=C(c1cc(CCc2ccccc2)nc2ccc(-c3ccc4c(c3)OCO4)cc12)N1CCC[C@H]1CN1CCCC1 show?
**A:** 5.00 to 6.00

**Q:** Bench note: what pIC50 did N#Cc1ccc(-c2ccc3nc(N[C@@H]4CCc5ccccc54)cc(C(=O)N4CCC[C@H]4CN4CCCC4)c3c2)cc1 show?
**A:** < 5.00

**Q:** Bench note: what pIC50 did Clc1cc(N2CCC[C@H]2CN2CCCC2)c2cc(-c3ccc4c(c3)OCO4)ccc2n1 show?
**A:** < 5.00
